- Tested on: SHP77;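 also: growth inhibition of human SHP-77 cells measured by a cell viability assay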
- Assay text: cells
- Assay type: functional, cell-based, Homo sapiens, SHP-77
- Reported conditions: Homo sapiens, SHP77
- Description: SANGER: Inhibition of human SHP-77 cell growth in a cell viability assay.
pIC50: −log10 of the molar value.
# pIC50 values compiled below

// known answers, use as guide
O=C(/C=C/c1ccccc1)NC(NC(=S)Nc1cccc2cccnc12)C(Cl)(Cl)Cl (centres undefined) :: < 4.80
CO[C@H]1C[C@@H]2CC[C@@H](C)[C@@](O)(O2)C(=O)C(=O)N2CCCC[C@H]2C(=O)O[C@H]([C@H](C)C[C@@H]2CC[C@@H](O)[C@H](OC)C2)CC(=O)[C@H](C)/C=C(\C)[C@@H](O)[C@@H](OC)C(=O)[C@H](C)C[C@H](C)/C=C/C=C/C=C/1C :: < 7.00
C=C1C(=O)O[C@@H]2C3O[C@]3(C)CC/C=C(\C)CC[C@@H]12 (some centres undefined) :: < 5.30
C=CCc1cccc(/C=N/NC(=O)CN2CCN(Cc3ccccc3)CC2)c1O :: < 5.59

IN: Any idea what pIC50 was measured for CCC(=O)N1CCN(c2ccc(-n3c(=O)ccc4cnc5ccc(-c6cnc7ccccc7c6)cc5c43)cc2C(F)(F)F)CC1 ?
OUT: < 5.92

IN: # query: pIC50 of entry O=C(c1cc(Cc2n[nH]c(=O)c3ccccc23)ccc1F)N1CCN(C(=O)C2CC2)CC1
OUT: < 5.30

IN: So what's the measured pIC50 for this one? COC(=O)CNC(=O)C(=O)OC
OUT: 3.09

IN: Field request: pIC50 | item: COc1ccc(-c2ccc3c(N4CCOC[C@@H]4C)nc(N4CCOC[C@@H]4C)nc3n2)cc1CO
OUT: < 5.70

IN: Tell me the measured pIC50 of C[C@]1(O)C[C@@H](c2nc(-c3ccc4ccc(-c5ccccc5)nc4c3)c3c(N)nccn32)C1 , please.
OUT: < 5.59

----------
- Test system: ES6;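 also: growth inhibition of human ES6 cells, read out with a cell viability assay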
- Assay text: cells
- Format: functional, cell-based, Homo sapiens
- Reported conditions: es6
- Description: SANGER: Inhibition of human ES6 cell growth in a cell viability assay.
pIC50: −log10 of the molar value.
Result type: pIC50

IN: Given the entry Cc1cc([C@@H](C)Nc2ccccc2C(=O)O)c2nc(N3CCOCC3)cc(=O)n2c1 , report its measured pIC50.
OUT: < 5.29

----------
- Test system: JVM-2;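 also: growth inhibition of JVM-2 cells determined by a cell viability assay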
- Assay text: cells
- Assay type: functional, cell-based
- Reported conditions: Homo sapiens
- Description: SANGER: Inhibition of human JVM-2 cell growth in a cell viability assay.
Result type: IC50

CN(Cc1cnc2nc(N)nc(N)c2n1)c1ccc(C(=O)N[C@@H](CCC(=O)O)C(=O)O)cc1 [METHOTREXATE] :: > 200 nM

IN: Requested field: IC50. Item: Cn1cc(C2=C(c3ccc(Cl)cc3Cl)C(=O)NC2=O)c2ccccc21
OUT: > 10000 nM

IN: IC50 lookup needed for CNC(=O)c1cc(Oc2ccc(NC(=O)Nc3ccc(Cl)c(C(F)(F)F)c3)cc2)ccn1 , thanks.
OUT: > 4000 nM

IN: // lookup IC50 for Cc1cnc(-c2cnc(NCCNc3ccc(C#N)cn3)nc2-c2ccc(Cl)cc2Cl)[nH]1
OUT: > 2560 nM

IN: Which value of IC50 has been reported for C[C@]1(O)C[C@@H](c2nc(-c3ccc4ccc(-c5ccccc5)nc4c3)c3c(N)nccn32)C1 in the records?
OUT: > 2560 nM

IN: Fill blank: measured IC50 of the compound CN1CCN(CCOc2cc(OC3CCOCC3)c3c(Nc4c(Cl)ccc5c4OCO5)ncnc3c2)CC1 is ____.
OUT: > 2000 nM

IN: What IC50 value was documented for this compound, O=C(c1cc(Cc2n[nH]c(=O)c3ccccc23)ccc1F)N1CCN(C(=O)C2CC2)CC1 ?
OUT: > 5000 nM

IN: IC50 for Cc1cc(Nc2cc(N3CCN(C)CC3)nc(Sc3ccc(NC(=O)C4CC4)cc3)n2)n[nH]1 ?
OUT: > 2000 nM

----------
- Tested on: SF-539
- Assay text: cells
- Type: functional, cell-based, Homo sapiens
- Reported conditions: Homo sapiens, SF-539
- Description: SANGER: Inhibition of human SF539 cell growth in a cell viability assay.
Here the recorded IC50 is given for each entry.

COc1ccc(C2=N[C@@H](c3ccc(Cl)cc3)[C@@H](c3ccc(Cl)cc3)N2C(=O)N2CCNC(=O)C2)c(OC(C)C)c1 [NUTLIN-3] :: > 8 µM
Nc1ccn([C@@H]2O[C@H](CO)[C@@H](O)[C@@H]2O)c(=O)n1 [CYTARABINE] :: 0.717 µM

IN: What measured IC50 is associated with CN(Cc1cnc2nc(N)nc(N)c2n1)c1ccc(C(=O)N[C@@H](CCC(=O)O)C(=O)O)cc1 [METHOTREXATE] on SF-539?
OUT: > 0.2 µM

IN: For the record C[C@]1(O)C[C@@H](c2nc(-c3ccc4ccc(-c5ccccc5)nc4c3)c3c(N)nccn32)C1 [LINSITINIB] , what value of IC50 is listed for SF-539?
OUT: > 2.56 µM

IN: API: value(readout= IC50, system= SF-539, query= CC1=C2C[C@H]3[C@@H](CC=C4C[C@@H](O)CC[C@@]43C)[C@@H]2CC[C@]12O[C@@H]1C[C@H](C)CN[C@H]1[C@H]2C [CYCLOPAMINE] )
OUT: > 16 µM

IN: Any idea what IC50 came out for CCOc1nc(NC(=O)Cc2cc(OC)ccc2OC)cc(N)c1C#N on SF-539?
OUT: > 10 µM

IN: Param readout= IC50; system= SF-539; entry= Cc1cc(Nc2cc(N3CCN(C)CC3)nc(Sc3ccc(NC(=O)C4CC4)cc3)n2)n[nH]1 [TOZASERTIB] ; returns value.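 Also: Read-out is a cell viability assay, with IC50 reflecting inhibition of cell growth.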
OUT: > 2 µM

----------
- System: A549
- Assay text: cells
- Type: functional, cell-based
- Reported conditions: Homo sapiens
- Description: SANGER: Inhibition of human A549 cell growth in a cell viability assay.
Result type: pIC50
Convention used: pIC50 is expressed as -log10 of the molar concentration.

COc1ccc(C2=N[C@@H](c3ccc(Cl)cc3)[C@@H](c3ccc(Cl)cc3)N2C(=O)N2CCNC(=O)C2)c(OC(C)C)c1 :: 5.44

Now examine the next entry.
IN: Checklist item: pIC50 tested on A549, entry CC(=O)O[C@@]12CO[C@@H]1C[C@H](O)[C@@]1(C)C(=O)[C@H](O)C3=C(C)[C@@H](OC(=O)[C@H](O)[C@@H](NC(=O)OC(C)(C)C)c4ccccc4)C[C@@](O)([C@@H](OC(=O)c4ccccc4)[C@H]21)C3(C)C , value?
OUT: 9.05

----------
A collection of compounds and their measured pIC50
- System: IGR-1
- Assay text: cells
- Type: functional, cell-based, Homo sapiens
- Reported conditions: Homo sapiens, IGR-1
- Description: SANGER: Inhibition of human IGR-1 cell growth in a cell viability assay.
pIC50: −log10 of the molar value.

Cc1ccc(Nc2nccc(N(C)c3ccc4c(C)n(C)nc4c3)n2)cc1S(N)(=O)=O [PAZOPANIB] :: < 5.10

IN: Form field: pIC50 recorded for COc1ccc(-c2ccc3c(N4CCOC[C@@H]4C)nc(N4CCOC[C@@H]4C)nc3n2)cc1CO [AZD-8055] with IGR-1 (enter value)
OUT: < 5.70

IN: # value lookup — system IGR-1, readout pIC50, item O=C1N=C(NCc2cccs2)S/C1=C\c1ccc2ncccc2c1
OUT: < 5.30

IN: Tell me reported pIC50 for Cn1cncc1[C@@](N)(c1ccc(Cl)cc1)c1ccc2c(c1)c(-c1cccc(Cl)c1)cc(=O)n2C [TIPIFARNIB] , tested with IGR-1.
OUT: 5.79

IN: Return pIC50 measured with IGR-1 given this compound: O=C(c1cc(Cc2n[nH]c(=O)c3ccccc23)ccc1F)N1CCN(C(=O)C2CC2)CC1 [OLAPARIB]
OUT: < 5.30

IN: Requested read-out pIC50, target or system IGR-1, entry Cn1cc(C2=C(c3ccc(Cl)cc3Cl)C(=O)NC2=O)c2ccccc21 [SB-216763]
OUT: < 5.00

----------
- System: U-266
- Assay text: cells
- Assay type: functional, cell-based
- Reported conditions: Homo sapiens
- Description: SANGER: Inhibition of human U-266 cell growth in a cell viability assay.
pIC50: −log10 of the molar value.
Result type: pIC50

# annotated cases, reported pIC50 shown
CN(c1ncccc1CNc1nc(Nc2ccc3c(c2)CC(=O)N3)ncc1C(F)(F)F)S(C)(=O)=O :: < 5.59
Cn1cncc1[C@@](N)(c1ccc(Cl)cc1)c1ccc2c(c1)c(-c1cccc(Cl)c1)cc(=O)n2C :: < 4.80
C=CCc1cccc(/C=N/NC(=O)CN2CCN(Cc3ccccc3)CC2)c1O :: < 5.59

IN: Test system U-266; read-out pIC50; what value for CC1=C2C[C@H]3[C@@H](CC=C4C[C@@H](O)CC[C@@]43C)[C@@H]2CC[C@]12O[C@@H]1C[C@H](C)CN[C@H]1[C@H]2C ?
OUT: < 4.80

IN: Record lookup: for U-266, what pIC50 belongs to Cc1cc([C@@H](C)Nc2ccccc2C(=O)O)c2nc(N3CCOCC3)cc(=O)n2c1 ?
OUT: < 5.29

IN: Please state recorded pIC50 (tested on U-266) of C=C1C(=O)O[C@@H]2C3O[C@]3(C)CC/C=C(\C)CC[C@@H]12 (stereo not given in full)
OUT: < 5.30
